The measurements presented in this section are drawn from patent US20020026053A1.

- system: EGFR (Homo sapiens, UniProt P00533)
- Construct: endogenous in cells; host or cells: A431 cells (lysate, captured with SUMO1 anti-EGFR antibody)
- Sequence (P00533 25-1210): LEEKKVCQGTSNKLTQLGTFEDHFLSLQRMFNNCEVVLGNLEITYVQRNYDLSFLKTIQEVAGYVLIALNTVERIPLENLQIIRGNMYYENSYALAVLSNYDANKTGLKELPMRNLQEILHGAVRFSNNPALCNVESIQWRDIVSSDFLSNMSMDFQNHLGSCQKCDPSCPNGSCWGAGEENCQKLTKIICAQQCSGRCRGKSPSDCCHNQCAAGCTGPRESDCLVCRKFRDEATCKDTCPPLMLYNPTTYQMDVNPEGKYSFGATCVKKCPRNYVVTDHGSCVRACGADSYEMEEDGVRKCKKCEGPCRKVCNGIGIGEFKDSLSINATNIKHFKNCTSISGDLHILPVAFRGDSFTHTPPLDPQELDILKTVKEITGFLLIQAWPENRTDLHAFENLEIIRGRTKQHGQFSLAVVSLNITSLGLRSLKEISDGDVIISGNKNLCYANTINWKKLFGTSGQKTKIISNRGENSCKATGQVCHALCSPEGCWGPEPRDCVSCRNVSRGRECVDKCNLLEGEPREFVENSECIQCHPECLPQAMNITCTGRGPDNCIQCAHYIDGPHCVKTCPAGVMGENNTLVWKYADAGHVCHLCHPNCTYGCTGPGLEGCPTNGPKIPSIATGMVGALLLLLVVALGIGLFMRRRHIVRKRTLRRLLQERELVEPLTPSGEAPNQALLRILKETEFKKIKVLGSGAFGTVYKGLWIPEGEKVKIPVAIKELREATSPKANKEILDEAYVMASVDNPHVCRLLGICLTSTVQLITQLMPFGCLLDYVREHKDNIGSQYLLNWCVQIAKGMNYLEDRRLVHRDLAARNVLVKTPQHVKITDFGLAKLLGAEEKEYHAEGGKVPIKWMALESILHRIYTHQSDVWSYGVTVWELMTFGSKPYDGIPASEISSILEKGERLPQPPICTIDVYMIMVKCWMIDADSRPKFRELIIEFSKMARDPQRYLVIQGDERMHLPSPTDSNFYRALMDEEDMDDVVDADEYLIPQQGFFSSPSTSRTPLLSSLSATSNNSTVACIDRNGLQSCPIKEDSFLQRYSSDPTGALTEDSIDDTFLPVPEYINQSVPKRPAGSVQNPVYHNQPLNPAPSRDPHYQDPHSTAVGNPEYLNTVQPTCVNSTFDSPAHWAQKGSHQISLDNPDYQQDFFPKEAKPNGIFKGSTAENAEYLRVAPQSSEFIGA
- procedure_details: Biochemical EGFR Assay
- Design: concentration or dose not given beside the values
assay_metric: Biochem EGFR % Inhibition (P.167) (%)
Numbers only, in %.

Cc1c(Br)cc(Br)c2c1C(=Cc1ccc(N3CCOCC3)cc1)C(=O)N2 | −3.7
Cc1c(Br)ccc2c1C(=Cc1ccccc1Cl)C(=O)N2 | −4.5
CCOc1cccc(C=C2C(=O)Nc3ccc(S(=O)(=O)Nc4ccc(C(F)(F)F)cc4)cc32)c1O | −10.8
Cc1c(Br)cc(Br)c2c1C(=Cc1ccc[nH]1)C(=O)N2 | 5.4
COc1ccc(C=C2C(=O)Nc3c(Br)cc(Br)c(C)c32)c2ccccc12 | 30.3
O=C1Nc2ccc(S(=O)(=O)N3CCOCC3)cc2C1=Cc1cc(Cl)ccc1O | 3.9
CNS(=O)(=O)c1ccc2c(c1)C(=Cc1cccc(C(F)(F)F)c1)C(=O)N2 | 23.0
CNS(=O)(=O)c1ccc2c(c1)C(=Cc1cccc(F)c1O)C(=O)N2 | −13.7

Items follow; give Biochem EGFR % Inhibition (P.167) for each.
1. Cc1c(Br)cc(Br)c2c1C(=Cc1ccc(F)cc1F)C(=O)N2
2. O=C1Nc2ccc(I)cc2C1=Cc1cccc(F)c1
3. Cc1[nH]c(C=C2C(=O)Nc3c(Br)cc(Br)c(C)c32)c(Br)c1Br
4. O=C1Nc2c(Br)cc(Br)cc2C1=Cc1ccc(Br)s1

1: −2.0; 2: 8.4; 3: 55.6; 4: 12.5

Items follow; give Biochem EGFR % Inhibition (P.167) for each.
1. Cc1c(Br)cc(Br)c2c1C(=Cc1ccc(O)c(O)c1O)C(=O)N2
2. O=C1Nc2c(Br)cc(Br)cc2C1=Cc1ccc([N+](=O)[O-])cc1

[72.8, "−6.4"]
